Data provenance is patent US20100249172A1.

Tested on: MCF-7 cells
test_description: Cell cycle analysis by flow cytometry (propidium iodide)
Assay type: cell-based, human
experimental_setup: 25 μM, 0 h, mean ± S.E.M.
Assign class by S %: not lower than 10% means Condition met; lower than 10% means Condition not met.

Completed entries (count: 3):
- compound: "COc1ccc2c(c1OC)C(=O)O[C@@H]2[C@H]1c2c(c(Br)c3c(c2OC)OCO3)CCN1C [9-Br-nos]"
  target: "MCF-7 cells"
  qualitative_label: "Condition met"
- compound: "COc1ccc2c(c1OC)C(=O)O[C@@H]2[C@H]1c2c(c(F)c3c(c2OC)OCO3)CCN1C [9-F-nos]"
  target: "MCF-7 cells"
  qualitative_label: "Condition met"
- compound: "COc1ccc2c(c1OC)C(=O)O[C@@H]2[C@H]1c2c(cc3c(c2OC)OCO3)CCN1C [Nos, reference compound]"
  target: "MCF-7 cells"
  qualitative_label: "Condition met"

Query :: Check this compound for S % at or above 10%: COc1ccc2c(c1OC)C(=O)O[C@@H]2[C@H]1c2c(c(I)c3c(c2OC)OCO3)CCN1C [9-I-nos]
Result :: Condition met

Query :: Check this compound for S % at or above 10%: COc1ccc2c(c1OC)C(=O)O[C@@H]2[C@H]1c2c(c(Cl)c3c(c2OC)OCO3)CCN1C [9-Cl-nos]
Result :: Condition not met

----------
System: MCF-7 cells
test_description: Cell cycle analysis by flow cytometry (propidium iodide)
Assay type: cell-based, human
experimental_setup: 25 μM, 48 h, mean ± S.E.M.
# key: entry, value: G0/G1 %
The figure you give is taken to be in %; do not add the unit.

- compound: "COc1ccc2c(c1OC)C(=O)O[C@@H]2[C@H]1c2c(c(I)c3c(c2OC)OCO3)CCN1C"
  unit_text: "%"
  assay_value: 15.4
- compound: "COc1ccc2c(c1OC)C(=O)O[C@@H]2[C@H]1c2c(cc3c(c2OC)OCO3)CCN1C [Nos, reference compound]"
  unit_text: "%"
  assay_value: 19.8

Query :: Could you share which G0/G1 % value was measured for `COc1ccc2c(c1OC)C(=O)O[C@@H]2[C@H]1c2c(c(Cl)c3c(c2OC)OCO3)CCN1C` ?
Result :: 8

Query :: Could you share which G0/G1 % value was measured for `COc1ccc2c(c1OC)C(=O)O[C@@H]2[C@H]1c2c(c(F)c3c(c2OC)OCO3)CCN1C` ?
Result :: 7.9

Query :: Could you share which G0/G1 % value was measured for `COc1ccc2c(c1OC)C(=O)O[C@@H]2[C@H]1c2c(c(Br)c3c(c2OC)OCO3)CCN1C` ?
Result :: 6.5

----------
Tested on: MCF-7 cells
test_description: Cell cycle analysis by flow cytometry (propidium iodide)
Assay type: cell-based, human
experimental_setup: 25 μM, 0 h, mean ± S.E.M.
# key: entry, value: G2/M %
Please state the value followed by its unit.

In the examples that follow, each entry is paired with its recorded G2/M %.
- compound: "COc1ccc2c(c1OC)C(=O)O[C@@H]2[C@H]1c2c(c(I)c3c(c2OC)OCO3)CCN1C [9-I-nos]"
  target: "MCF-7 cells"
  G2/M %: "23.1 ± 3.7%"
- compound: "COc1ccc2c(c1OC)C(=O)O[C@@H]2[C@H]1c2c(c(F)c3c(c2OC)OCO3)CCN1C [9-F-nos]"
  target: "MCF-7 cells"
  G2/M %: "18.5 ± 2.2%"
- compound: "COc1ccc2c(c1OC)C(=O)O[C@@H]2[C@H]1c2c(c(Br)c3c(c2OC)OCO3)CCN1C [9-Br-nos]"
  target: "MCF-7 cells"
  G2/M %: "28.9 ± 4.4%"

Query :: What reported G2/M % corresponds to COc1ccc2c(c1OC)C(=O)O[C@@H]2[C@H]1c2c(cc3c(c2OC)OCO3)CCN1C [Nos, reference compound] on MCF-7 cells?
Result :: 29.9 ± 2.2%

Query :: What reported G2/M % corresponds to COc1ccc2c(c1OC)C(=O)O[C@@H]2[C@H]1c2c(c(Cl)c3c(c2OC)OCO3)CCN1C [9-Cl-nos] on MCF-7 cells?
Result :: 20.7 ± 3.4%
